# Assay protocol: Cytotoxicity against human MT4 cells assessed as reduction in cell viability incubated for 5 days by MTT assay
# Format: toxicity, cell-based
# Condition info: time 5 day
Parameter: CC50 at 120 h (µM)

Compound: Cc1cc(/C=C/C#N)cc(C)c1Oc1nc(Nc2ccc(N3CCS(=O)(=O)CC3)c(C#N)c2)ncc1-c1cnc(F)nc1
Parameter: CC50 at 120 h
Unit: µM
Qualifier operator: =
Reported measurement: 23.9
--
Compound: Cc1cc(/C=C/C#N)cc(C)c1Oc1nc(Nc2ccc(N3CCN(S(C)(=O)=O)CC3)c(C#N)c2)ncc1-c1ccc(F)nc1
Parameter: CC50 at 120 h
Unit: µM
Qualifier operator: >
Reported measurement: 200
--
Compound: Cc1cc(/C=C/C#N)cc(C)c1Oc1nc(Nc2ccc(N3CCN(S(C)(=O)=O)CC3)c(C#N)c2)ncc1-c1cnc(F)nc1
Parameter: CC50 at 120 h
Unit: µM
Qualifier operator: =
Reported measurement: 30.9
--
Compound: O=C1Nc2ccc(Cl)cc2[C@@](C#CC2CC2)(C(F)(F)F)O1 [EFAVIRENZ]
Parameter: CC50 at 120 h
Unit: µM
Qualifier operator: >
Reported measurement: 6.4
--
Compound: Cc1ccnc2c1NC(=O)c1cccnc1N2C1CC1 [NEVIRAPINE]
Parameter: CC50 at 120 h
Unit: µM
Qualifier operator: >
Reported measurement: 15
--
Compound: Cc1cc(/C=C/C#N)cc(C)c1Oc1nc(Nc2ccc(N3CCS(=O)(=O)CC3)c(C#N)c2)ncc1-c1cccnc1
Parameter: CC50 at 120 h
Unit: µM
Qualifier operator: =
Reported measurement: 21.8
--
Compound: Cc1cc(/C=C/C#N)cc(C)c1Oc1nc(Nc2ccc(N3CCN(S(C)(=O)=O)CC3)c(C#N)c2)ncc1-c1cncnc1
Parameter: CC50 at 120 h
Unit: µM
Qualifier operator: >
Reported measurement: 206
--
Compound: Cc1cc(/C=C/C#N)cc(C)c1Oc1nc(Nc2ccc(N3CCN(S(C)(=O)=O)CC3)c(C#N)c2)ncc1-c1ccc(N)nc1
Parameter: CC50 at 120 h
Unit: µM
Qualifier operator: =
Reported measurement: 161
--
Compound: Cc1cc(/C=C/C#N)cc(C)c1Oc1nc(Nc2ccc(N3CCS(=O)(=O)CC3)c(F)c2)ncc1-c1ccc(F)nc1
Parameter: CC50 at 120 h
Unit: µM
Qualifier operator: >
Reported measurement: 212
--
Compound: Cc1cc(/C=C/C#N)cc(C)c1Oc1nc(Nc2ccc(N3CCS(=O)(=O)CC3)c(F)c2)ncc1-c1ccc(N)nc1
Parameter: CC50 at 120 h
Unit: µM
Qualifier operator: =
Reported measurement: 0.8
--
Compound: Cc1cc(/C=C/C#N)cc(C)c1Oc1nc(Nc2ccc(N3CCN(S(C)(=O)=O)CC3)c(F)c2)ncc1-c1cnc(F)nc1
Parameter: CC50 at 120 h
Unit: µM
Qualifier operator: =
Reported measurement: 0.6
--
Compound: Cc1cc(/C=C/C#N)cc(C)c1Oc1nc(Nc2ccc(N3CCS(=O)(=O)CC3)c(F)c2)ncc1-c1cncnc1
Parameter: CC50 at 120 h
Unit: µM
Qualifier operator: >
Reported measurement: 219

Measured values drawn from ChEMBL document CHEMBL6109097 for this set.
